What GI50 was measured for each of the following?
System: HCC 2998
assay_remarks: NCI tumour cell line growth inhibition, 48 h
Activity calls are given as the source filed them. No stated cut-off is given here; in the data, active = GI50 up to about 1.1 µM and inactive = higher.

Look up and state reported GI50 for Cc1ccc(NC(=O)C(=O)C(C(=O)c2ccc3ccccc3c2)C2OC(=O)c3ccccc32)c(C)c1 (configuration not stated) 8.99 µM (inactive)

Look up and state reported GI50 for CC1OC(CO)(n2cnc3c(N)ncnc32)C(O)C1O (configuration not stated) > 100 µM (inactive)

Look up and state reported GI50 for Cc1cn(Cc2cn(CC3OC(n4cc(C)c(=O)[nH]c4=O)CC3O)nn2)c(=O)[nH]c1=O (configuration not stated) > 100 µM (inactive)

Look up and state reported GI50 for CN1CC2=C(N=C(S)NC2c2ccc(Cl)cc2)/C(=C/c2ccc(Cl)cc2)C1 (configuration not stated) 16.6 µM (inactive)

Look up and state reported GI50 for "CC(=O)n1ccc2c(Cl)ncnc21" > 100 µM (inactive)

Look up and state reported GI50 for "CCC(=O)CCC1=Nc2nnc(CCCCc3nnc4n3C(=O)C(CCC(=O)CC)=N4)n2C1=O" > 100 µM (inactive)

Look up and state reported GI50 for "COc1ccc2cc(NC(=O)Nn3cnnc3)ccc2c1" > 100 µM (inactive)

Look up and state reported GI50 for "O=C1C=C(N2CCCC2)C=C(N2CCCC2)C1" > 100 µM (inactive)

Look up and state reported GI50 for "CN(C)/N=C1/CCC(C(F)(F)F)(C(F)(F)F)O1" 30.6 µM (inactive)

Look up and state reported GI50 for "C[N+](C)(C)CC(=O)N/N=c1\cc(C(=O)Nc2ccc(N=O)cc2C#N)oc2cc(O)ccc12" > 100 µM (inactive)

Look up and state reported GI50 for "c1ccc(C[N+]23CN4CN(CN(C4)C2)C3)cc1" 20.4 µM (inactive)

Look up and state reported GI50 for Cc1ccc(C2SC(=N)Nc3c2c(C)nn3C(=O)c2ccc(Cl)cc2)cc1 (configuration not stated) > 10 µM (inactive)

Look up and state reported GI50 for Cc1ccc(S(=O)(=O)C2=c3nc4ccccc4cc3=C3C(=O)c4ccccc4C(=O)C32)cc1 (configuration not stated) > 100 µM (inactive)

Look up and state reported GI50 for "COc1ccc(N2C(=O)c3cccnc3S2(=O)=O)cc1" > 100 µM (inactive)

Look up and state reported GI50 for Nc1nc(SCCNC(=O)CCc2ccc(O)cc2)nc2c1ncn2C1OC(CO)C(O)C1O (configuration not stated) > 203 µM (inactive)

Look up and state reported GI50 for "CCCCCc1c(Cl)nc(Cl)nc1Cl" 11.1 µM (inactive)

Look up and state reported GI50 for CCOC(=O)C1=C(C)N(Cc2ccccc2)C2(O)C=CC(=O)C3C(=O)N(c4ccccc4)C(=O)C132 (configuration not stated) 1.67 µM (inactive)

Look up and state reported GI50 for "Cc1c(C(=O)O)n2c(S)nnc2c2ccccc12" > 100 µM (inactive)

Look up and state reported GI50 for CC(=O)NC1C(O)C(O)C(CO)OC1n1nc(SCc2ccccc2)c(=O)[nH]c1=O (configuration not stated) > 100 µM (inactive)

Look up and state reported GI50 for CCC1(c2ccc(N3C(=O)c4cc(OC)c(OC)cc4C3=O)cc2)CCC(=O)NC1=O (configuration not stated) > 10 µM (inactive)

Look up and state reported GI50 for C=CCNC(=O)CN(CC(=O)OC)C1CCCCC1N(CC(=O)OC)CC(=O)OC (configuration not stated) 70 µM (inactive)

Look up and state reported GI50 for CCOc1ccc(/N=N/C2C(=O)N(C(=O)CC(=O)Nc3ccc(C)cc3)N=C2C)cc1 (configuration not stated) 19 µM (inactive)
